Numbers sourced from paper PMC6327987.

Listed here: items and their measured melting point.

Which measured melting point value corresponds to c1cncc(-c2nccc3c4ccccc4n(CCCCn4c5ccccc5c5ccncc54)c23)c1 [Compound 5a] ?
173.3 to 175.1 °C

* * *

Listed here: items and their measured melting point.

Answered cases to consult:
- compoundStructureString: "Cc1nccc2c3ccccc3n(CCCCCn3c4ccccc4c4ccnc(-c5cccs5)c43)c12"
  melting point: "158.4 to 159.2 °C"
- compoundStructureString: "COc1ccc2c3ccnc(C)c3n(CCCCCn3c4ccccc4c4ccnc(-c5cccnc5)c43)c2c1"
  melting point: "183.6 to 184.9 °C"
- compoundStructureString: "Cc1nccc2c3ccccc3n(CCCCn3c4ccccc4c4ccnc(-c5cccs5)c43)c12"
  melting point: "214.8 to 216 °C"
- compoundStructureString: "Cc1nccc2c3ccccc3n(CCCCCCn3c4ccccc4c4ccnc(-c5cccnc5)c43)c12"
  melting point: "141.3 to 142.9 °C"

Which measured melting point value corresponds to COc1ccc(-c2nccc3c4ccccc4n(CCCCn4c5ccccc5c5ccnc(-c6cccs6)c54)c23)cc1 ?
232.5 to 233.3 °C
